Target Under Test: T1, recombinant human αvβ8 integrin extracellular domains (human, UniProt P06756 1-992; P26012 1-684, Biotinylated on the Avitag (tag not in the letters); interchain disulfide between the coiled-coils (not in the letters).)
T1 construct: Soluble heterodimer co-expressed in Expi293 cells; also called hαvβ8
Assay Name: AlphaLISA blocking of human LAP binding
Result Type: IC50 (nM)
Numbers only; they are read as nM.

- control antibody abituzumab (mAb-24) (antibody, V domains shown) VH: QVQLQQSGGELAKPGASVKVSCKASGYTFSSFWMHWVRQAPGQGLEWIGYINPRSGYTEYNEIFRDKATMTTDTSTSTAYMELSSLRSEDTAVYYCASFLGRGAMDYWGQGTTVTVSS VL: DIQMTQSPSSLSASVGDRVTITCRASQDISNYLAWYQQKPGKAPKLLIYYTSKIHSGVPSRFSGSGSGTDYTFTISSLQPEDIATYYCQQGNTFPYTFGQGTKVEIKR: 2.91
- Ab-33 (antibody, V domains shown) VH: EVQLVQSGAEVKKPGSSVKVSCKASGGTFSNYAISWVRQAPGQGLEWMGGIIPIFGTANYAQKFQGRVTITADESTSTAYMELSSLRSEDTAVYYCARAPRSARGDMYYYYYGMDVWGQGTTVTVSS VL: DIQMTQSPSTLSASVGDRVTITCRASQSIGSWLAWYQQKPGKAPKLLIYKASSLESGVPSRFSGSGSGTEFTLTISSLQPDDFATYYCQQYGRYPWTFGGGTKVEIK: 12.2

Here's the next entry for you.
// field: IC50; key: Ab-32 (antibody, V domains shown) VH: EVQLQESGPGLVKPSETLSLTCAVSGYSISSGYYWGWIRQPPGKGLEWIGSIYHSGNTYYNPSLKSRVTISVDTSKNQFSLKLSSVTAADTAVYYCARVPRYSRGDAYYYYGMDVWGQGTTVTVSS VL: EIVLTQSPGTLSLSPGERATLSCRASQSVRSSYLAWYQQKPGQAPRLLIYGASSRATGIPDRFSGSGSGTDFTLTISRLEPEDFAVYYCQQAGLVFTFGGGTKVEIK ; value = 48

src = patent US20250313635A1
